target: UniProt P51784; assay: log2 ratio of Biotin-Ahx-Ub-VS probe labelling (fragment/DMSO); higher = less target engagement (more negative = stronger competition), active = hit call of the paper (q ≤ 0.05, log2 ratio ≤ -1); conditions: compound concentration: 200 uM; treatment time: 3 h
Sequence (P51784 whole entry, the tested form may be a part): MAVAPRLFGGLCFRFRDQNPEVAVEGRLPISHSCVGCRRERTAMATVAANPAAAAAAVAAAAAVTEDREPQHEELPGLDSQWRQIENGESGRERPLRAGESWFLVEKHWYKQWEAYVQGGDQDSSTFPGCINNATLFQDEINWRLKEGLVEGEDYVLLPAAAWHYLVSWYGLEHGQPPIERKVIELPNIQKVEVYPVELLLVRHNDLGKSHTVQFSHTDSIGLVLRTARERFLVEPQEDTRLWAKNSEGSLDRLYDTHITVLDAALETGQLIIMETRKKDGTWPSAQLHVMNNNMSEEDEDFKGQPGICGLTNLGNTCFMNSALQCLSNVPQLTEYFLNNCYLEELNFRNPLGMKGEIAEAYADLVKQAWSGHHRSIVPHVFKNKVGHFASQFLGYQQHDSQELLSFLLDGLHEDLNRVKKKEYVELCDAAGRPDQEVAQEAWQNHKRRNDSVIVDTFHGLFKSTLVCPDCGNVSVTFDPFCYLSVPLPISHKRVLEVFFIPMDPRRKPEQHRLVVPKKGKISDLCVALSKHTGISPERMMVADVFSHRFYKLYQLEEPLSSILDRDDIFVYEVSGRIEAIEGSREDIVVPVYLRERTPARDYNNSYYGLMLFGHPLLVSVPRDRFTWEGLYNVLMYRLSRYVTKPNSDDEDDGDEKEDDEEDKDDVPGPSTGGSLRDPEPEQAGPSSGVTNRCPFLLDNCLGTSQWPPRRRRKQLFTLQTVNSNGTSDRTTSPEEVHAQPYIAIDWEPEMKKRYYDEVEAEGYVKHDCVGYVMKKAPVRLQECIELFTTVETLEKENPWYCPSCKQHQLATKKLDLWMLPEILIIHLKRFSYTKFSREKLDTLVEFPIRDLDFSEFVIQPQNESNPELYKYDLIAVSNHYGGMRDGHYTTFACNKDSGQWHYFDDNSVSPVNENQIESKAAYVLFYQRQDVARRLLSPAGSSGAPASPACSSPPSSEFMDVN
Documented log2 ratio of Biotin-Ahx-Ub-VS probe labelling across a set of molecules
property.name: log2 ratio of Biotin-Ahx-Ub-VS probe labelling

INSERT INTO assay_data (chemical_string, assayed_system, obs_value) VALUES
  ('Cc1conc1C1CN(C(=O)CCl)C1', 'UniProt P51784', -0.677),
  ('Cc1cccc(NC(=O)CCl)c1C', 'UniProt P51784', -0.431),
  ('O=C(CCl)NCCC1=CCCCC1', 'UniProt P51784', 0.0951),
  ('O=C(CCl)N1CCCN(C(=O)c2ccc(Cl)cc2)CC1', 'UniProt P51784', -0.139),
  ('Cl.Cn1cnc2cc(CNC(=O)CCl)ccc21', 'UniProt P51784', -0.209),
  ('Cl.O=C(CCl)NCCc1ncc(F)cc1F', 'UniProt P51784', -0.132),
  ('O=C(CCl)NCc1ccc2c(c1)OCO2', 'UniProt P51784', 0.0895);

###

target: UniProt O00487; test: log2 ratio of Biotin-Ahx-Ub-VS probe labelling (fragment/DMSO); higher = less target engagement (more negative = stronger competition), active = hit call of the paper (q ≤ 0.05, log2 ratio ≤ -1); details: compound concentration: 200 uM; treatment time: 3 h
Sequence (O00487 whole entry, the tested form may be a part): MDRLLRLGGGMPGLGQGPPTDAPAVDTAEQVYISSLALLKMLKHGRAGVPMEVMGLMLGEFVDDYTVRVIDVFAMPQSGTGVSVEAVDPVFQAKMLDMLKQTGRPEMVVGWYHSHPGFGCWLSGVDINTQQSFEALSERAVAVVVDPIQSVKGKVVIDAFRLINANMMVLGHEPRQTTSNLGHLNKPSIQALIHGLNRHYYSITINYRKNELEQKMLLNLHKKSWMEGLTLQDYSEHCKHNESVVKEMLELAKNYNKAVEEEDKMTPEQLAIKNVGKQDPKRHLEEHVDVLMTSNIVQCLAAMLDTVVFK
Listing of entries alongside the reported log2 ratio of Biotin-Ahx-Ub-VS probe labelling.
property.name: log2 ratio of Biotin-Ahx-Ub-VS probe labelling

INSERT INTO assay_data (molecule, assayed_system, obs_value) VALUES
  ('CNC(=O)C1(NC(=O)CCl)CCCCC1', 'UniProt O00487', 0.0455),
  ('CCN1C(=O)C2CN(C(=O)CCl)CCN2C1=O (centres undefined)', 'UniProt O00487', 0.00662),
  ('CC(c1ccccc1)N(C)C(=O)CCl (centres undefined)', 'UniProt O00487', -0.0533),
  ('O=C(CCl)NCc1ccc(N2CCOCC2)c(F)c1', 'UniProt O00487', 0.0665),
  ('Cl.O=C(CCl)NCc1ccnc(Oc2ccccc2F)c1', 'UniProt O00487', 0.13),
  ('O=C(CCl)NCCC1=CCCCC1', 'UniProt O00487', -0.0958),
  ('Cc1cccc(N2CCC(NC(=O)CCl)C2=O)c1 (centres undefined)', 'UniProt O00487', 0.133),
  ('CCN(Cc1ccc(C#N)cc1F)C(=O)CCl', 'UniProt O00487', -0.0587),
  ('O=C(CCl)NCc1cccc(F)c1', 'UniProt O00487', -0.0795),
  ('CCC(NC(=O)CCl)c1ccc(Cl)cc1 (centres undefined)', 'UniProt O00487', 0.0429),
  ('N#Cc1ccc(Cl)cc1NC(=O)CCl', 'UniProt O00487', 0.0781),
  ('CC(NC(=O)CCl)c1cccc(Cl)c1 (centres undefined)', 'UniProt O00487', -0.18),
  ('Cc1ncsc1CCNC(=O)CCl', 'UniProt O00487', 0.339),
  ('CN(C)C(=O)c1ccc(NC(=O)CCl)cc1', 'UniProt O00487', -0.0189);

###

target: UniProt Q9UGI0; experiment: log2 ratio of Biotin-Ahx-Ub-VS probe labelling (fragment/DMSO); higher = less target engagement (more negative = stronger competition), active = hit call of the paper (q ≤ 0.05, log2 ratio ≤ -1); details: compound concentration: 200 uM; treatment time: 3 h
Sequence (Q9UGI0 whole entry, the tested form may be a part): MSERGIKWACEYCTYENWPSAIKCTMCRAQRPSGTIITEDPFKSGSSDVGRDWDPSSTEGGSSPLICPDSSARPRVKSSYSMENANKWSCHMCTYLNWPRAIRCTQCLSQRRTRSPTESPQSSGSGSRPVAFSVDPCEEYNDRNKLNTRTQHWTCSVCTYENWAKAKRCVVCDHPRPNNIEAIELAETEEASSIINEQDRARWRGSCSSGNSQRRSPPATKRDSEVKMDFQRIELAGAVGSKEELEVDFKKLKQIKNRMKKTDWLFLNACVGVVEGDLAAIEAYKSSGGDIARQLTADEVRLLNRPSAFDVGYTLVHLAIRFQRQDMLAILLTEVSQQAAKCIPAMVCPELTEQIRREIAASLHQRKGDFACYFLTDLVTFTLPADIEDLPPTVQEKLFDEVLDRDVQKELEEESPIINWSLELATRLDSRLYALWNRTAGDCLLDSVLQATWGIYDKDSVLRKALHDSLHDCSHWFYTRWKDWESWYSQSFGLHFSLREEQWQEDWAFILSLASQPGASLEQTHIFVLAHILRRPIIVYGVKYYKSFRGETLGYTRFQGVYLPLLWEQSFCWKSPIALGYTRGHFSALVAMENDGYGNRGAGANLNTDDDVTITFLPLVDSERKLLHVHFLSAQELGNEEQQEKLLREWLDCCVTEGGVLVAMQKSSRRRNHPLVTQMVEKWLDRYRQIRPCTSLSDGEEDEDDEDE
property.name: log2 ratio of Biotin-Ahx-Ub-VS probe labelling

INSERT INTO results (molecule, obs_value) VALUES
  ('O=C(CCl)N1CCN(c2nc3ccccc3o2)CC1', -0.691),
  ('Cc1nc(CN2CCCN(C(=O)CCl)CC2)no1.Cl', 0.143),
  ('O=C(CCl)N[C@H]1CCS(=O)(=O)c2ccccc21', -0.158),
  ('Cc1noc(N2CCN(C(=O)CCl)CC2)n1.Cl', -0.369),
  ('Cc1cccc(NC(=O)CCl)c1C', -0.414),
  ('CNC(=O)C1CCN(C(=O)CCl)CC1', 0.0343),
  ('C#Cc1cccc(NC(=O)CCl)c1', -1.01),
  ('Cc1ccc(-c2nnc(C)[nH]2)c(NC(=O)CCl)c1', -0.97),
  ('COc1ccccc1C(C)NC(=O)CCl (centres undefined)', -0.788),
  ('Cl.O=C(CCl)NCc1cc2c(nc1O)CCCC2', -0.421),
  ('O=C(CCl)Nc1nnc(CC(F)(F)F)o1', -0.304),
  ('NC(=O)C(Cc1ccccc1)NC(=O)CCl (centres undefined)', -0.398),
  ('O=C(CCl)Nc1cc2c(cc1Cl)OCCCO2', -0.0467),
  ('O=C(CCl)NCc1noc(C2CC2)n1', -0.133),
  ('Cc1n[nH]c2c1CN(C(=O)CCl)CC2', -1.32),
  ('Cc1ccc(CC(CO)CNC(=O)CCl)cc1 (centres undefined)', -0.929),
  ('Cl.O=C(CCl)N1CC(c2ccc(Br)cn2)C1', -0.897),
  ('CN(CCC(O)c1ccc(Br)cc1)C(=O)CCl (centres undefined)', -0.555),
  ('Cc1ccc(CN(C)C(=O)CCl)o1', -0.57),
  ('O=C(CCl)N1CCC(c2noc3cc(F)ccc23)CC1', -1.02),
  ('O=C(CCl)NCc1cccc(N2CCCC2=O)c1', -0.491),
  ('CCN(Cc1ccc(C#N)cc1F)C(=O)CCl', -1.27),
  ('CS(=O)(=O)c1ccc(NC(=O)CCl)cc1', -0.87),
  ('Cc1ccc2nnc(CNC(=O)CCl)n2c1', 0.244),
  ('Cc1ccc(CN(CCO)C(=O)CCl)cc1', -1.16),
  ('O=C(CCl)N1CCC(c2ccn[nH]2)C1 (centres undefined)', -0.767),
  ('NC(=O)C1CCCN(C(=O)CCl)C1 (centres undefined)', -0.698),
  ('Cc1ccc(CNC(=O)CCl)nc1C.Cl', -0.161),
  ('O=C(CN1CCN(C(=O)CCl)CC1)Nc1cccc(F)c1', -0.37);

###

# reported log2 ratio of Biotin-Ahx-Ub-VS probe labelling; entries follow
target: EIF3F (UniProt O00303); assay: log2 ratio of Biotin-Ahx-Ub-VS probe labelling (fragment/DMSO); higher = less target engagement (more negative = stronger competition), active = hit call of the paper (q ≤ 0.05, log2 ratio ≤ -1); conditions: compound concentration: 200 uM; treatment time: 3 h
Sequence (O00303 whole entry, the tested form may be a part): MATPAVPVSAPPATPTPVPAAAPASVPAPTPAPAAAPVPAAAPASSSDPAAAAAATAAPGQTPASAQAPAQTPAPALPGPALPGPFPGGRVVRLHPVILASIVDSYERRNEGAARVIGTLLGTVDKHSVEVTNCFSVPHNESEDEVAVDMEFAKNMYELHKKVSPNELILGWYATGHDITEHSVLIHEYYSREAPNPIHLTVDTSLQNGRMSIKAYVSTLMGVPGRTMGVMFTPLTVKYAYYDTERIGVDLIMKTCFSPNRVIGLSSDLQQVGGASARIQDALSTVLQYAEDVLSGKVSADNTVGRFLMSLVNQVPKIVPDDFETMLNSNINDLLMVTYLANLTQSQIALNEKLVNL
property.name: log2 ratio of Biotin-Ahx-Ub-VS probe labelling

INSERT INTO results (compound, obs_value) VALUES
  ('NS(=O)(=O)c1ccc(Cl)c(NC(=O)CCl)c1', -0.117),
  ('Cc1cccnc1NC(=O)C1CCN(C(=O)CCl)CC1.Cl', -0.244),
  ('Cl.Cn1ncc2c1CC(NC(=O)CCl)CC2 (stereo not drawn)', -0.121),
  ('CN(CCC(O)c1ccc(Br)cc1)C(=O)CCl (stereo not drawn)', -0.372),
  ('O=C(CCl)Nc1cccc2ncccc12', 0.254),
  ('Cc1n[nH]c2c1CN(C(=O)CCl)CC2', -0.389),
  ('O=C(CCl)N1CCC(C(=O)N2CCCC2)CC1', -0.123),
  ('O=C(CCl)N1CCc2sccc2C1', -0.211),
  ('CS(=O)(=O)c1ccc(CNC(=O)CCl)cc1', -0.177),
  ('Cc1nnc(C(NC(=O)CCl)c2ccccc2)n1C (stereo not drawn)', 0.534),
  ('CC(NC(=O)CCl)c1noc(Cc2ccccc2)n1 (stereo not drawn)', -0.25),
  ('Cc1cc(NC(=O)CCl)n(-c2ccccc2)n1', -0.154),
  ('Cc1ccc(CN(C)C(=O)CCl)o1', -0.0182),
  ('O=C(CCl)N(C1=CCCCC1)C1CC1', -0.311),
  ('NC(=O)C(Cc1ccccc1)NC(=O)CCl (stereo not drawn)', 0.127),
  ('Cl.O=C(CCl)NCCc1ncc(F)cc1F', -0.289),
  ('O=C(CCl)NCc1ccc(N2CCOCC2)c(F)c1', -0.139),
  ('CCN1C(=O)C2CN(C(=O)CCl)CCN2C1=O (stereo not drawn)', -0.18),
  ('O=C(CCl)N1CCC(O)(Cc2ccc(F)cc2)C1 (stereo not drawn)', -0.133),
  ('O=C(CCl)N(C1CCCC1)C1CCS(=O)(=O)C1 (stereo not drawn)', -0.335),
  ('O=C(CCl)N1CC=C(c2c[nH]c3ccccc23)CC1', -0.308),
  ('CC1Cc2ccccc2N1C(=O)CCl (stereo not drawn)', -0.355),
  ('O=C(CCl)Nc1cc(Cl)ccc1-n1cncn1', -0.457),
  ('Cl.O=C(CCl)NCc1ccnc(Oc2ccccc2F)c1', -0.072),
  ('O=C(CCl)N[C@H]1CCS(=O)(=O)c2ccccc21', -0.052),
  ('Cc1cccc2nc(CCNC(=O)CCl)cn12.Cl', -0.438),
  ('Cc1ccc(CNC(=O)CCl)nc1C.Cl', -0.526),
  ('N#Cc1ccc(Cl)cc1NC(=O)CCl', -0.13);
